# Test system: Mus musculus
# METHOD NOTES: Induction of serum IFNgamma production in C57BL/6 mouse assessed as serum IFNgamma level at 100 ug/kg, ip and measured for 48 hrs by peak value method
# Assay type: functional
MEASURED PROPERTY: Activity (pg/mL)
Quick reminder: number only, in pg/mL, skip the unit.

Hi! What's the reported Activity for "CCCCCCCCCCCCCCCCCCCCCCCC(=O)N[C@@H](CO[C@H]1O[C@H](CNC(=O)[C@@H](N)CCC(=O)O)[C@H](O)[C@H](O)[C@H]1O)[C@H](O)[C@H](O)CCCCC" on Mus musculus?
241

Hi! What's the reported Activity for "CCCCCCCCCCCCCCCCCCCCCCCC(=O)N[C@@H](CO[C@H]1O[C@H](CNC(=O)CCc2ccc(O)cc2)[C@H](O)[C@H](O)[C@H]1O)[C@H](O)[C@H](O)CCCCC" on Mus musculus?
169

Hi! What's the reported Activity for "CCCCCCCCCCCCCCCCCCCCCCCC(=O)N[C@@H](CO[C@H]1O[C@H](CO)[C@H](O)[C@H](O)[C@H]1O)[C@H](O)[C@H](O)CCCCC" on Mus musculus?
336

Hi! What's the reported Activity for "CCCCCCCCCCCCCCCCCCCCCCCCCC(=O)N[C@@H](CO[C@H]1O[C@H](CO)[C@H](O)[C@H](O)[C@H]1O)[C@H](O)[C@H](O)CCCCCCCCCCCCCC" on Mus musculus?
666
